Reference source for all entries: patent US20210009693A1

# experimental.target: T1, human PD-L1-Fc mutant E58A (human)
# T1 construct: Position 58 counts on native human PD-L1 (NP_054862.1); also called E58A mutant
# T1 sequence (chain, as listed by the source E58A E58A limits assumed): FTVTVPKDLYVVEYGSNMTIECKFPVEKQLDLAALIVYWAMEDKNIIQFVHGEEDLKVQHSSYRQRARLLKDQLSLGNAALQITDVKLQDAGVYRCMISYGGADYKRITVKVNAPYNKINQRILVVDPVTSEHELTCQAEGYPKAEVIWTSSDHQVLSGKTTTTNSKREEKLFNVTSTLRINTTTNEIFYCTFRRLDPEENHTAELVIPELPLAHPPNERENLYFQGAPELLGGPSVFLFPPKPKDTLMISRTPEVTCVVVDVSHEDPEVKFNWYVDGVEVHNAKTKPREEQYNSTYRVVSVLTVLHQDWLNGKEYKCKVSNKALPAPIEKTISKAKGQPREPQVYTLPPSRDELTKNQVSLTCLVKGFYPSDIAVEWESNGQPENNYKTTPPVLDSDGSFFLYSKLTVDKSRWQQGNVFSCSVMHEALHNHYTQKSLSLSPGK
# test.summary: ELISA on captured PD-L1-Fc, as in Example 18A
// reported % of binding of Ab to E58A mutant vs. that to WT PD-L1 per item
Write the answer as a number in %, unit excluded.

binder="23F11-H4L4 (antibody, V domains shown, Human IgG1 constant region with N297A; biotinylated in the alanine-scan ELISA; also called 23F11-H4L4-bio; humanized 23F11) VH: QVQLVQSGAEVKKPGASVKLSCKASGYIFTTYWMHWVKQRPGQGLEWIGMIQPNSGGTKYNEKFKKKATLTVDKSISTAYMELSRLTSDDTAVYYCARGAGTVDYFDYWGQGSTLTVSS VL: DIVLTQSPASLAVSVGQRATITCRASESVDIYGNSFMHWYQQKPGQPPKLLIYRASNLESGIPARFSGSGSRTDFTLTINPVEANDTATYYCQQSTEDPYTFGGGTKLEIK" value=9.2
binder="22C9 (antibody, V domains shown, Mouse monoclonal from hybridoma; also called mouse monoclonal antibody 22C9) VH: QVQLQQSGAELVKPGASVKLSCKASGYTFTSYWMHWVWQRPGQGLEWIGMIHPNSDITNCNENFKHTVTLTVDKSSSTAYMQLSSLTSEDSAVFYCARSDGSSYWYFDVWGTGTTVTVSS VL: SIVMTQTPKFLSVSAGDRVTITCKAGQSVNNDVAWYQQKPGQSPKLLIYYASNRYTGVPDRFTGSGYGTDFTFTISTVQAEDLAVYFCQQDFSSPLTFGAGTKLELK" value=17.2

Moving on to the next binder.
% of binding of Ab to E58A mutant vs. that to WT PD-L1 for 23F11 (antibody, V domains shown, also called mouse monoclonal antibody 23F11; clone 23F11) VH: QVQLQQPGAELVKPGASVKLSCKASGYSFTTYWMHWVKQRPGQGLEWIGMIQPNSGGTKYNEKFKKKATLTVDKSSTTASMELSSLTSEDSAVYYCARGAGTVDYFDYWGQGSTLTVSS VL: DIVLTHSPVSLAVSLGQRATISCRASESVDIYGNSFMHWYQQKPGQPPKLLIYRASNLESGIPARFSGSGSRTDFTLTINPVEADDVATYYCQQSTEDPYTFGGGTKLEIK is 9.9
